- Measurement parameters: in methanol, 288.15 K
Measured parameter: solubility (mole fraction)
Answer using only a numeral; do not append any unit.

Measured solubility (mole fraction), Cc1c(C(=O)c2c[nH]n(C)c2=O)ccc(S(C)(=O)=O)c1C1=NOCC1 : 0.000173

====

- Measurement parameters: in n-butyl acetate, 283.15 K
Measured parameter: solubility (mole fraction)
Kindly provide the number alone.

solubility (mole fraction) for Cc1c(C(=O)c2c[nH]n(C)c2=O)ccc(S(C)(=O)=O)c1C1=NOCC1 is 0.000355

====

- Measurement parameters: in acetonitrile, 288.15 K
Measured parameter: solubility (mole fraction)
Give the figure only, with no unit attached.

Value of solubility (mole fraction) reported for the compound Cc1c(C(=O)c2c[nH]n(C)c2=O)ccc(S(C)(=O)=O)c1C1=NOCC1 is 0.000778

====

- Measurement parameters: in isobutanol, 323.15 K
Measured parameter: solubility (mole fraction)
// no unit, no text: just the number

The measured solubility (mole fraction) associated with Cc1c(C(=O)c2c[nH]n(C)c2=O)ccc(S(C)(=O)=O)c1C1=NOCC1 reads 0.000449

====

- Measurement parameters: in THF, 313.15 K
Measured parameter: solubility (mole fraction)
Returns: the value as a bare number; no unit string appended.

Reported solubility (mole fraction) ( Cc1c(C(=O)c2c[nH]n(C)c2=O)ccc(S(C)(=O)=O)c1C1=NOCC1 ) = 0.00576

====

- Measurement parameters: in n-butanol, 293.15 K
Measured parameter: solubility (mole fraction)
Reply with the value as a number alone.

Input Cc1c(C(=O)c2c[nH]n(C)c2=O)ccc(S(C)(=O)=O)c1C1=NOCC1 . Output solubility (mole fraction): 0.000105

====

- Measurement parameters: in isopropyl acetate, 308.15 K
Measured parameter: solubility (mole fraction)
Respond with the number and no other words.

Record Cc1c(C(=O)c2c[nH]n(C)c2=O)ccc(S(C)(=O)=O)c1C1=NOCC1 . Reported solubility (mole fraction): 0.000706

====

- Measurement parameters: in methyl acetate, 308.15 K
Measured parameter: solubility (mole fraction)

Record summary for Cc1c(C(=O)c2c[nH]n(C)c2=O)ccc(S(C)(=O)=O)c1C1=NOCC1 : reported solubility (mole fraction) = 0.00215

====

- Measurement parameters: in ethyl acetate, 288.15 K
Measured parameter: solubility (mole fraction)
Could you respond with only the numeric value?

Lookup result for Cc1c(C(=O)c2c[nH]n(C)c2=O)ccc(S(C)(=O)=O)c1C1=NOCC1 ; measured solubility (mole fraction): 0.000624

====

- Measurement parameters: in isopropanol, 293.15 K
Measured parameter: solubility (mole fraction)
# output: bare number, no unit

solubility (mole fraction) in this record for Cc1c(C(=O)c2c[nH]n(C)c2=O)ccc(S(C)(=O)=O)c1C1=NOCC1 : 6.87e-05

====

- Measurement parameters: in acetonitrile, 298.15 K
Measured parameter: solubility (mole fraction)
Give the figure only, with no unit attached.

compound Cc1c(C(=O)c2c[nH]n(C)c2=O)ccc(S(C)(=O)=O)c1C1=NOCC1 , solubility (mole fraction) observed: 0.00112

====

- Measurement parameters: in ethyl acetate, 293.15 K
Measured parameter: solubility (mole fraction)
Number only, no unit.

Quick note, solubility (mole fraction) for Cc1c(C(=O)c2c[nH]n(C)c2=O)ccc(S(C)(=O)=O)c1C1=NOCC1 landed at 0.000747

====

- Measurement parameters: in ethyl acetate, 308.15 K
Measured parameter: solubility (mole fraction)
Give the figure only, with no unit attached.

Memo: Cc1c(C(=O)c2c[nH]n(C)c2=O)ccc(S(C)(=O)=O)c1C1=NOCC1 , reported solubility (mole fraction): 0.00128
